Could you please report measured ECmax (-fold induction over basal) for the items listed next?
# TARGET UNDER TEST: T1, GPR39 (G protein-coupled receptor 39) (Homo sapiens (Human), UniProt O43194 1-453)
# T1 sequence: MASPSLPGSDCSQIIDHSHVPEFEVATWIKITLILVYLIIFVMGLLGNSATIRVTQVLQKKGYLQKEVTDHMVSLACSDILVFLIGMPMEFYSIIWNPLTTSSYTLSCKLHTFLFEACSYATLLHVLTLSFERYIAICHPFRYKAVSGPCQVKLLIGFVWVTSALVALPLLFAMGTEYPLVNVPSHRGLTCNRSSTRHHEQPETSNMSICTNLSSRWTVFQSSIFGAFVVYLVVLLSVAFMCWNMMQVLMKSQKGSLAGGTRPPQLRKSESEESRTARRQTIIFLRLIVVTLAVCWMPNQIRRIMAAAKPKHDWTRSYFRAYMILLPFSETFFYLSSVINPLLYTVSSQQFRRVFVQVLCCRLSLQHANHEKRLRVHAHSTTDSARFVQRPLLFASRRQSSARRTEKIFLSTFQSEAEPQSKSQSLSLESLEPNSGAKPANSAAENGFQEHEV
# ASSAY INFO: cell-based or functional assay
Square brackets hold non-standard residues; d marks the D form. Ends that are not written are not given here. * marks the point of attachment. tbm = (2'-(1H-tetrazol-5-yl)-[1,1'-biphenyl]-4-yl)methyl on the histidine imidazole nitrogen, c1ccc(-c2nn[nH]n2)c(-c2ccc(C*)cc2)c1; 2‑(4-tert-butyl)phenyl = His carrying a 2-(4-tert-butylphenyl) group on the imidazole (imidazole C2), CC(C)(C)c1ccc(*)cc1; 2‑phenyl = His whose imidazole is a 2-phenyl-1H-imidazol-4-yl group; dPhe(4-Cl) = N[C@H](Cc1ccc(Cl)cc1)C(=O)O; dPhe(4-Me) = Cc1ccc(C[C@@H](N)C(=O)O)cc1; Trt = c1ccc(C(c2ccccc2)(c2ccccc2)*)cc1; Benzhydryl = c1ccc(C(c2ccccc2)*)cc1; Lauroyl = CCCCCCCCCCCC(=O)*; Decanoyl = CCCCCCCCCC(=O)*; Octanoyl = CCCCCCCC(=O)*

H(adamantan‑1‑yl)K(Octanoyl)FY [HKFY-23]    15 -fold induction over basal
HK(Octanoyl)FY (not fully specified (residue 1)) [HKFY-9]    21 -fold induction over basal
H(Trt)K(Lauroyl)FY [HKFY-25]    7.72 -fold induction over basal

Provide ECmax (-fold induction over basal) for all items below, preserving their order.
1. H(Trt)FYDQQARF (not fully specified; printed as His(trt)-Phe-Tyr-Asp-Gln-Gln-Ala-Arg-Phe) [HKFY-52]
2. GSH(Trt)K(Octanoyl)FY [HKFY-37]
3. H(2‑(4-tert-butyl)phenyl)K(Octanoyl)[dPhe(4-Me)]Y [HKFY-60]

output:
15.5 -fold induction over basal
16 -fold induction over basal
28.2 -fold induction over basal

Provide ECmax (-fold induction over basal) for all items below, preserving their order.
1. H(Trt)K(Octanoyl)FYSQNGARF (not fully specified; printed as His(trt)-Lys(caprylic)-Phe-Tyr-Ser-Gln-Asn-Gly-Ala-Arg-Phe) [HKFY-39]
2. H(Benzhydryl)K(Octanoyl)[dPhe(4-Me)]Y-NH2 [HKFY-66]
3. H(Trt)K(Decanoyl)FY [HKFY-24]
4. H(2‑phenyl)K(Octanoyl)[dPhe(4-Me)]Y [HKFY-57]

output:
1. 12.1 -fold induction over basal
2. 20.2 -fold induction over basal
3. 7.03 -fold induction over basal
4. 8.5 -fold induction over basal

Provide ECmax (-fold induction over basal) for all items below, preserving their order.
1. H(Trt)K(Octanoyl)[dPhe(4-Cl)]Y [HKFY-13]
2. H(tbm)K(Octanoyl)FY (not fully specified (residue 3); printed as His(tbm)-Lys(caprylic)-d-Phe(4-CF3)-Tyr) [HKFY-77]

output:
1. 25.7 -fold induction over basal
2. 11.6 -fold induction over basal
